- assayed target: human Claudin18.1 expressed on cells (human) (UniProt P56856)
- Sequence (P56856 whole entry): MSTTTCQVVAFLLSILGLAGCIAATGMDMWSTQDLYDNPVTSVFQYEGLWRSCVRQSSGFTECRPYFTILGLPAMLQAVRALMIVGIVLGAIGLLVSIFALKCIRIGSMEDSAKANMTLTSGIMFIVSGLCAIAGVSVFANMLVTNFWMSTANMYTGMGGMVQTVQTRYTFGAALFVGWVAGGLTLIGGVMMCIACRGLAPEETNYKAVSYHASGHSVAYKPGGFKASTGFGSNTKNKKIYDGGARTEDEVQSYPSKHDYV
- protocol text: flow cytometry on 293FT-hClaudin18.1 cells, antibody 10 ug/mL, cells with antibody binding/total cells
Property: binding percentage; scope: individual binders
Report only the number, with the unit % understood.

Example entries and their recorded answers appear below.
Form: binder = 8-hIgG1Fc (Fc fusion, not shown: a dimerising Fc or GST) QVQLVESGGGLVQPGGSLRLSCAASGSIFGLNFMGWWRQAPGSQRELVAIATSGGSIQYGDSVKGRFTISRDNAKNTVYLQMASLKPEDTAVYYCNVHTYDFLGRDYWGQGTQVTVSL ; binding percentage = 2.26

Form: binder = 1-hIgG1Fc (Fc fusion, not shown: a dimerising Fc or GST) EVQLVGSGGGLVQPGGSLRLSCAASGSILNLMTTGWYRQAPGKQRDLVATITFGGTTNYADSVKGRFTISRDKSKNTAYLQMDNLKPEDTAVYFCYADVIVGFQDRRVAWDAGTQVTVSS ; binding percentage = 2.75

Form: binder = 5-hIgG1Fc (Fc fusion, not shown: a dimerising Fc or GST) QVQLVESGGGLVQTGGSLRLSCAASDSTFSSYIMGWFRQAPGKEREFVAGITWSGGIKDYADSVKGRFTIARDNAKNTVYLQMNSLKPEDAAIYYCAANAIQLTRRSGDYAYWGQGTQVTVSS ; binding percentage = 2.06

Let us move to another entry and its binding percentage.
Form: binder = 10-hIgG1Fc (Fc fusion, not shown: a dimerising Fc or GST) QVQLAESGGGLVQPGGSLRLSCAASGNILSINYMGWYRQAPGKERELVATITRGGTTNYQGDLKGRFIISGDNTKDTVYLQMNNLQPEDTAVYYCYFRINFGILGGLRDYWGQGTQVTVSS ; binding percentage = 2.06
